# assay-name: chemical genetic growth profiling, strain panel (AID 1159580);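 also: tested at 20 µM; growth read once vehicle control cultures reached saturation at 30 °C; 1 = growth at the plate median or of vehicle wells; lower values mean less growth of the strain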
# conditions: S. cerevisiae deletion strains, growth OD, locus YPL055C, strain LGE1, active compounds read low
About 2,000 (36%) of roughly 5,500 compounds were called active. Roughly 18% stayed inconclusive and do not appear here. The list shows a part of the results.
Cut-off 1 on normalized growth: below means yes (1), at or above means no (0).

Consider the following illustrative entries.
compound: O=C(CCCCCCCCCCCCC1CCCC1)Nc1ccc(S(=O)(=O)c2ccc(NC(=O)CCCCCCCCCCCCC3CCCC3)cc2)cc1
class-label: no (0)
//
compound: COc1ccc(NS(=O)(=O)c2c(C)noc2C)cc1
class-label: no (0)
//
compound: CN1CCN(C=Nc2ncc(C(F)(F)F)cc2Cl)CC1
class-label: no (0)
//
compound: Cc1c(O)c(O)cc2c1CC=C1[C@@]2(C)CC[C@@]2(C)C3C[C@](C)(C(=O)O)CC[C@]3(C)CC[C@]12C (stereo partly drawn)
class-label: yes (1)
//
compound: Oc1c(Br)cc(Br)c2cccnc12
class-label: yes (1)

Next compound, please.
Criterion: normalized growth strictly below 1. Is it met by CC/C(=C(\c1ccccc1)c1ccc(OCCN(C)C)cc1)c1ccccc1 ?
yes (1)
